- Target entity: human IL-13 variant (R130Q) (human, UniProt P35225 35-146)
- Sequence (P35225 35-146 limits assumed, stated change not applied): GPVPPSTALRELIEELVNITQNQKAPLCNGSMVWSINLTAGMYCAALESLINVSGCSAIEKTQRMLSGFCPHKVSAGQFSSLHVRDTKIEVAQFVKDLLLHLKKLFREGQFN
- Assay details: cell-based or functional assay
Please respond with reported Average IC50, IL-13-induced TARC production by A-549 cells for every item in the list.
Field: numeric (nM). Do not append units.

Problem: Please give the documented Average IC50, IL-13-induced TARC production by A-549 cells of 1B6 (antibody, V domains shown) VH: QVQLKESGPGLVAPSQSLSITCTVSGFSLTGYGVNWVRQPPGKGLEWLGMIWGDERIDYNSALKSRLSITKDNSKSQVFLKMNSLQTDDTGRYFCARDGYFPYAMDYWGQGTSVTVSS VL: NIVLTQSPASLAVSLGQRATISCRASETVDSYGKSYLHWYQQKPGQPPKLLIYLASNLESGVPARFSGSGSRTDFTLIIDPVEADDAATYYCQQNNEGPRTFGGGTKLEIKR
Solution: 0.24

Problem: Look up Average IC50, IL-13-induced TARC production by A-549 cells of 4A8 (antibody, V domains shown) VH: EVQLQQSGAEFVRPGALVKLSCKASGFNIKDYYMYWVKQRPEQGLEWIGRIDPENGNTIYDPKFQGKASITGDTSSNTAYLQLSSLTSEDTAVYYCARYAYYGPFDYWGQGTTLTVSS VL: QAVVTQESALTTSPGETVTLTCRSSIGTVTTNNYANWVQEKPDHLFTGLIGSTNNRAPGVPARFSGSLIGDKAALTITGAQTEDEAIYFCALWYSNHWVFGGGTKLTVLG and report it.
Solution: 0.27

Problem: Give the reported value of Average IC50, IL-13-induced TARC production by A-549 cells for this record: 8B6 (antibody, V domains shown) VH: QVQLKESGPGLVAPSQSLSITCTVSGFSLTGHNINWVRQPPGKGLEWLGMIWGDGNTDFNSALKSRLSISKDNSKSQVFLKLNSLQTDDTARYYCARDGYYPYAIKFWGQGTSVTVSS VL: HIVLTQSPASLAVSLGQRATISCRASETVDSYGSSFLHWYQQKPGQPPKLLIYLASKLESGVPARFSGSGSRTDFTLTIDPVEADDAATYYCQQNNEGPRTFGGGSKLEIKR
Solution: 0.48

Problem: Dear colleague, please send me the reported Average IC50, IL-13-induced TARC production by A-549 cells for 33C3 (antibody, V domains shown) VH: QVTLKESGPGILQPSQTLSLTCSFSGFSLSTSDLGVGWIRQPSGKGLEWLAHIWWDDVKRYNPALKSRLTISKDTSSSQVFLMIASVDTADTATYYCARIGSSGYIYYEMDYWGQGTSVTVSS VL: DIQMTQTTSSLSASLGDRVTITCRASQDIRNYLNWYQQKPDGTVKLLIYYTSRLHSGVPSRFSGSGSGTDYSLTISNLDQEDIATYFCQQGNTLPLTFGGGTRLEIKR when you can.
Solution: 0.1

Problem: Return value of Average IC50, IL-13-induced TARC production by A-549 cells for input 21D9 (antibody, V domains shown) VH: QVQLQQSGDDLVKPGASVKLSCKASGYTFTSYWINWIKQRPGQGLEWIGHIAPGSGETYDNEMFKDKAKLTVDTSSNTAYIHLSSLSSEDSAVYFCARGSFTFFYAMDYWGQGTSVTVSS VL: DVLMTQTPLSLPVSLGDQASISCRSSQNIVHSNGKTYLEWYLQRPGQSPKLLIYKVSNRFSGVPDRFSGSGSGTDFTLKISRVEAEDLGVYYCFQGSHVPYTFGGGTKLEIKR , no commentary.
Solution: 0.136

Just for reference, patent US20110165066A1 is where these values come from.
